# apical domain:HSA per entry
biological target: T1, CD71 apical domain (human, UniProt P02786 189-383, limits assumed); assay: solution ELISA screen, signal ratio to HSA control
T1 construct: domain: apical domain
T1 sequence (P02786 189-383 limits assumed): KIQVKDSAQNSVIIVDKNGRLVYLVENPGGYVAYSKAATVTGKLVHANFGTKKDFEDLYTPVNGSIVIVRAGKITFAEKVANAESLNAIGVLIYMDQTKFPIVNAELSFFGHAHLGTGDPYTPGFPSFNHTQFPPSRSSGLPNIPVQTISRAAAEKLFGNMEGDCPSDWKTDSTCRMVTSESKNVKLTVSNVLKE
Field: numeric (ratio). Do not append units.

These solved cases illustrate the format of a correct answer.
SEQ ID NO 233 (designed binder, not shown: small tags and cut ends) MLPAPKNLVVSRVTEDSARLSWTAPDAAFDSFYIAYAEPRPDGEAIQLFVPGSERSYDLTGLKPGTEYSVLIHGVKGGLLSSPLKAYFTT; 255
SEQ ID NO 255 (designed binder, not shown: small tags and cut ends) MLPAPKNLVVSRVTEDSARLSWTAPDAAFDSFFIGYLEPQPPGEAILLFVPGSERSYDLTGLKPGTEYNVTIQGVKGGFPSTPLSASFTT; 69.3
SEQ ID NO 252 (designed binder, not shown: small tags and cut ends) MLPAPKNLVVSRVTEDSARLSWTAPDAAFDSFYIAYAEPRPDGEAIVLHVPGSERSYDLTGLKPGTEYSVLIHGVKGGLLSSPLDAFFTT; 104

Input: Tell me the measured apical domain:HSA of SEQ ID NO 264 (designed binder, not shown: small tags and cut ends) MLPAPKNLVVSRVTEDSARLSWTAPDAAFDSFYIAYAEPRPDGEAINLSVPGSERSYDLTGLKPGTEYSVLIHGVKGGLLSSPLDAYFTT , please.
Output: 177

Input: Quick one: apical domain:HSA for SEQ ID NO 262 (designed binder, not shown: small tags and cut ends) MLPAPKNLVVSRVTEDSARLSWTAPDAAFDSFYIAYAEPRPDGEAIVLHVPGSERSYDLTGLKPGTEYSVLIHGVKGGLLSSPLQAIFTT ?
Output: 231

Input: Given the binder SEQ ID NO 240 (designed binder, not shown: small tags and cut ends) MLPAPKNLVVSRVTEDSARLSWTAPDAAFDSFYIAYAEPRPDGEAISLSVPGSERSYDLTGLKPGTEYSVLIHGVKGGLLSSPLHAKFTT , what is its reported apical domain:HSA?
Output: 292

Input: Dear colleague, I am looking for the recorded apical domain:HSA of the following binder: SEQ ID NO 208 (designed binder, not shown: small tags and cut ends) MLPAPKNLVVSRVTEDSARLSWTAPDAAFDSFFIGYLEPQPPGEAIVLAVPGSERSYDLTGLKPGTEYNVTIQGVKGGFPSYPLVAAFTT
Output: 226

Input: State the recorded apical domain:HSA for this entry: SEQ ID NO 231 (designed binder, not shown: small tags and cut ends) MLPAPKNLVVSRVTEDSARLSWTAPDAAFDSFFIGYLEPQPPGEAIHLYVPGSERSYDLTGLKPGTEYNVTIQGVKGGFPSDPLDAVFTT
Output: 331

Input: What does the data say about its apical domain:HSA? Entry: SEQ ID NO 259 (designed binder, not shown: small tags and cut ends) MLPAPKNLVVSRVTEDSARLSWTAPDAAFDSFYIAYAEPRPDGEAIQLGVPGSERSYDLTGLKPGTEYSVLIHGVKGGLLSSPLLAVFTT
Output: 235
